Target: thyroid peroxidase (TPO) (Sus scrofa)
Sequence (P09933 15-926): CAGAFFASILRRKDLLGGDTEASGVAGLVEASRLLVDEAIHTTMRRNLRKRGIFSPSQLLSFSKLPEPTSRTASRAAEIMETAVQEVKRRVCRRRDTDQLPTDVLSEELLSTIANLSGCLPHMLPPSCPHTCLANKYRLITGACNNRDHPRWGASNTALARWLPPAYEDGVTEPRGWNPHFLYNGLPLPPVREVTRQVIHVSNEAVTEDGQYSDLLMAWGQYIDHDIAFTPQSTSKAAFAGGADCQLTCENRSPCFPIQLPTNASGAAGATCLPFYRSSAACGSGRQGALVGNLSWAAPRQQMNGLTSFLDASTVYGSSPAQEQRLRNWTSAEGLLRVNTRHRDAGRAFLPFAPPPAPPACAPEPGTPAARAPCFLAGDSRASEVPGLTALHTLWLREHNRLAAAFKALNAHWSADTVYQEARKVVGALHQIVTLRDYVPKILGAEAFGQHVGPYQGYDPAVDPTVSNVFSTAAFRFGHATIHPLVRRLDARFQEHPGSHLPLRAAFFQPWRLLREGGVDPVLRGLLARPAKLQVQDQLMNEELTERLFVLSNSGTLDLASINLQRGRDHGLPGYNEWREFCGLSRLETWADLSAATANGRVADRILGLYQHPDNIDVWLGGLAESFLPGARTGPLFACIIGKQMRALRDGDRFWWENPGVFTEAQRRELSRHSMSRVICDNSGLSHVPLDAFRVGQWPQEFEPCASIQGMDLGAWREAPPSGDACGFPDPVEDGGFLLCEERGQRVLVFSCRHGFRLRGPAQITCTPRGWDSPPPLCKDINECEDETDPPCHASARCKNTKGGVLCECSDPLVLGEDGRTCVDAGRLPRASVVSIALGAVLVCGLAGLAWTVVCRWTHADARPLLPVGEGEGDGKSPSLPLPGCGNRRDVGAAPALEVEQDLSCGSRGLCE
quantityName: pKi
Note on units: pKi is unitless, being -log10 of a concentration expressed in mol/L.

O=c1c(O)c(-c2ccc(O)cc2)oc2cc(O)cc(O)c12; 3.19

stdin: Consider the compound shown here: O=c1cc(-c2ccc(O)cc2)oc2cc(O)cc(O)c12 What is its recorded pKi?
stdout: 2.90

* * *

Molecular target: thyroid peroxidase (TPO) (Sus scrofa, UniProt P09933)
Sequence (P09933 15-926): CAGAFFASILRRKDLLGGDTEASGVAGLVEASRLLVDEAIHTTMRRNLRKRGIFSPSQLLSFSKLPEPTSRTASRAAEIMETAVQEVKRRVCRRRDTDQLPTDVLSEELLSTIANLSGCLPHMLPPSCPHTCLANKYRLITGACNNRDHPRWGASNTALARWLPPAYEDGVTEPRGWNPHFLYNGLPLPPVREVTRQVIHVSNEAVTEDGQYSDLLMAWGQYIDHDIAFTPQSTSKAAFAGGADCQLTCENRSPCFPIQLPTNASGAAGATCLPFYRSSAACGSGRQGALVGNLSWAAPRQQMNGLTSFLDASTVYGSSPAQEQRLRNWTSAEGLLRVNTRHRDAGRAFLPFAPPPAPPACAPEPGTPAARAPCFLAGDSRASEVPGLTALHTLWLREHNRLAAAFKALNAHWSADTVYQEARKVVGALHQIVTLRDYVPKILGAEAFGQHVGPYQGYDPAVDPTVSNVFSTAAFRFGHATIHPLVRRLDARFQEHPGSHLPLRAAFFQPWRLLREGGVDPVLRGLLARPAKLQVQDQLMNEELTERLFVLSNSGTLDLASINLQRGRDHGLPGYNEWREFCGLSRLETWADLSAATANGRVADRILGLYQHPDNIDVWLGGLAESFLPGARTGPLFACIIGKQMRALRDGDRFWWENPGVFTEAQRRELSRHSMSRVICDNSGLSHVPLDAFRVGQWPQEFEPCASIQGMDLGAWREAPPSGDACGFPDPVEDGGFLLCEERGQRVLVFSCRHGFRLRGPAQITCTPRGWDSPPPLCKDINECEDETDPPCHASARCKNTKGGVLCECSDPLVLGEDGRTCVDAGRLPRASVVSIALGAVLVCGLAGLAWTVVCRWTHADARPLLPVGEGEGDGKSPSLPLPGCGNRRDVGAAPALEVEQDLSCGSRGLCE
Test: Thyroid peroxidase inhibitory assay (guaiacol assay, Lineweaver–Burk plot)
Settings: pure polyphenol solutions
Marks after values point to notes of the source that are not given here.
quantityName: Vmax (TPO)

Known Vmax (TPO) results, listed for orientation:
COc1cc(C=CC(=O)O)cc(OC)c1O (stereo in doubt) [Sinapinic acid, sinapinic acid]; 149.25 ± 6.26 ^a ΔAU/min
O=c1c(O)c(-c2ccc(O)cc2)oc2cc(O)cc(O)c12 [Kaempferol, kaempferol]; 192.31 ± 8.34 ^b ΔAU/min
O.Oc1cc(O)c2c(c1)O[C@H](c1ccc(O)c(O)c1)[C@@H](O)C2 [Catechin, catechin]; 144.93 ± 4.33 ^a ΔAU/min

Now consider a different molecule.
stdin: Consider the molecule shown here: O=c1cc(-c2ccc(O)cc2)oc2cc(O)cc(O)c12 [Apigenin, apigenin] What is its recorded Vmax (TPO)?
stdout: 149.25 ± 5.12 ^a ΔAU/min

* * *

Target: thyroid peroxidase (TPO) (Sus scrofa)
Assay: Thyroid peroxidase inhibitory assay (guaiacol assay, Lineweaver–Burk plot)
Conditions: pure polyphenol solutions, Lineweaver–Burk
quantityName: Mode of Inhibition (TPO)

O=c1c(O)c(-c2ccc(O)cc2)oc2cc(O)cc(O)c12; Competitive
O.Oc1cc(O)c2c(c1)O[C@H](c1ccc(O)c(O)c1)[C@@H](O)C2; Competitive
COc1cc(C=CC(=O)O)cc(OC)c1O (stereo in doubt); Competitive
